# assay: blockers of DNA damage checkpoint Chk1 activation – imaging, HeLa, hydroxyurea, phospho-Chk1 nuclear intensity, primary screen (AID 1187); note: test concentration not given here
# conditionParameters: hydroxyurea-induced phospho-Chk1 immunofluorescence imaging, higher = more signal
The source made the active and inactive calls. The rule behind the calls is not given here.
recordedMetric: z-score

So what does the record say about z-score for Cc1ccc(S[C@]2(C(=O)O)CC(=O)N(Cc3ccccc3C(F)(F)F)[C@@H]2c2ccc(CO)cc2)cc1 ?
-0.53 (inactive)

One more molecule: C=C(/C(=C/C[C@@H](OC(=O)c1ccncc1)c1cccc(OCCO)c1)c1cc(C(=O)OC)ccc1OC)C(C)C
-0.235 (inactive)

One more molecule: COC(=O)C(CC#Cc1ccc2c(c1)[C@]1(C(=O)N2)[C@H](C(=O)N2CCc3cc(OC)c(OC)cc3C2)[C@H]2C(=O)O[C@H](c3ccccc3)[C@H](c3ccccc3)N2[C@@H]1c1ccc(OCCO)cc1)C(=O)OC
0.277 (inactive)

One more molecule: CCOC(=O)C[C@H]1[C@H](OC(=O)c2ccc(C(=O)c3ccccc3)cc2)[C@@H](NC(=O)C2CCCCC2)c2cc(OCCCO)ccc2N1C(=O)Cc1ccc(OC)cc1
-0.129 (inactive)

One more molecule: COCCOC(=O)N1C(=O)[C@@]2(c3cc(C#CC4(O)CCCCCC4)ccc31)[C@H](C(=O)NC[C@H](O)c1ccccc1)[C@H]1C(=O)O[C@H](c3ccccc3)[C@H](c3ccccc3)N1[C@@H]2c1ccc(OCCO)cc1
0.167 (inactive)

One more molecule: O=C1N(Cc2ccccc2)c2ccccc2[C@H]2OC(c3ccc(OCCCO)cc3)=N[C@@]12CCS(=O)(=O)c1ccccc1
-0.0726 (inactive)

* * *

# assay: S. pombe growth modifiers, basal conditions – strain 972, OD600, 24 h, no modulator, primary screen (AID 1090);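 note: basal condition with compound alone and no growth modifier present; test concentration not given here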
# conditionParameters: S. pombe 972 growth, higher = more signal, called active from +8 up or from −8 down
Form field: z-score (one value per entry).
Please reply with the number alone, leaving off any unit.

cpdSmiles | recordedMetric | valueObserved
COCCOC(=O)N1C(=O)[C@@]2(c3cc(C#CCCO)ccc31)[C@H](C(=O)N1CCc3cc(OC)c(OC)cc3C1)[C@H]1C(=O)O[C@H](c3ccccc3)[C@H](c3ccccc3)N1[C@@H]2c1ccc(OCCO)cc1 | z-score | -0.581
CO[C@H]1O[C@H](CO)[C@@H](OC(=O)Nc2cccc(F)c2)[C@H](OC(=O)Nc2ccc3c(c2)OCO3)[C@H]1OC(=O)Nc1ccc2c(c1)OCO2 | z-score | 1.29
CC(=O)NCCCC[C@@H]1NC(=O)[C@@H]2C[C@H](C(=O)NCCCC[N+](C)(C)C)[C@H](c3cccc(OCCO)c3)N2C1=O | z-score | 0.338
Cc1ccc(S[C@]2(C(=O)NCCN3CCOCC3)CC(=O)N(C3Cc4ccccc4C3)[C@@H]2c2ccc(CO)cc2)cc1 | z-score | -0.291
C=CCNC(=O)[C@@H]1[C@H]2C(=O)O[C@H](c3ccccc3)[C@H](c3ccccc3)N2[C@H](c2ccc(O)cc2)[C@@]12C(=O)Nc1ccc(C#CCCO)cc12 | z-score | -0.397
COc1ccccc1CN1C(=O)c2ccccc2[C@@]2(Cc3ccccc3N(C3CC3)C2=O)[C@@H]1c1ccc(CO)cc1 | z-score | -0.384

# evaluate next
So what does the record say about z-score for COC(=O)[C@@]1(Cc2ccccc2)[C@H]2c3cc(C(=O)N(C)C)n(Cc4ccccn4)c3C[C@H]2CN1C(=O)c1ccccc1 ?
0.87
